log10(Kd) by entry:
systemTested: T1, human CD47 (recombinant protein, construct not stated) (human, UniProt Q08722 19-141)
T1 construct: also called hCD47; human CD47 protein
testMethodNotes: BLI (BLItz), IgG1 captured on anti-human Fc tips, human CD47 as analyte, 1:1 global fit
Values are log10 of Kd in nM.

Below are worked cases with known answers.
| binder | log10(Kd) |
| --- | --- |
| 11A1H10-IgG1 (antibody, V domains shown, Humanised version of clone 1-1-A1, IgG1/kappa; also called 1A11H10) VH: QVQLVQSGAEVKKPGASVKVSCKASGYTFTGYVIHWVRQAPGQGLEWMGYINPYNGGTNYAQKFKGRVTLTSDTSTTTAYMELSRLRSEDTAVYYCASGGYYTMDYWGQGTLVTVSS VL: DVVMTQSPLSLPVTLGQPASISCRSSQHLEYSNGYSYLHWYQQRPGQSPRLLIYKVSNRDSGVPDRFSGSGSGTDFTLKISRVEAEDVGVYYCSQSTHVPYTFGGGTKVEIKR | 2.05 |
| 11A1H6-IgG1 (antibody, V domains shown, Humanised version of clone 1-1-A1, IgG1/kappa; also called 1A11H6) VH: QVQLVQSGAEVKKPGASVKVSCKASGYTFTNYVIHWVRQAPGQGLEWMGYINPYNDGTKYNQKFKGRVTLTSDTSTTTAYMELSRLRSDDTAVYYCASGGYYTMDYWGQGTLVASTK VL: DVVMTQSPLSLPVTLGQPASISCRSSQHLEYSQGYSYLHWYQQRPGQSPRLLIYKVSNRDSGVPDRFSGSGSGTDFTLKISRVEAEDVGVYYCSQSTHVPYTFGGGTKVEIKR | 2.13 |
| 11A1H9-IgG1 (antibody, V domains shown, Humanised version of clone 1-1-A1, IgG1/kappa; also called 1A11H9) VH: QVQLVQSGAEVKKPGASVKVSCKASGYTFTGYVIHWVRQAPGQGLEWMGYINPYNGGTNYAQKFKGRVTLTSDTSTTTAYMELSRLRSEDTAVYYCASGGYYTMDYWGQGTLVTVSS VL: DVVMTQSPLSLPVTLGQPASISCRSSQHLEYSTGYSYLHWYQQRPGQSPRLLIYKVSNRDSGVPDRFSGSGSGTDFTLKISRVEAEDVGVYYCSQSTHVPYTFGGGTKVEIKR | 1.37 |
| 11A1H5-IgG1 (antibody, V domains shown, Humanised version of clone 1-1-A1, IgG1/kappa; also called 1A11H5) VH: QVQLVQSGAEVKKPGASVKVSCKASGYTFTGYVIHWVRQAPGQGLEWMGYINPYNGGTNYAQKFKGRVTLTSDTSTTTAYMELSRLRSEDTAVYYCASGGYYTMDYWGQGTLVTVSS VL: DVVMTQSPLSLPVTLGQPASISCRSSQHLEYSNGYSYLHWYQQRPGQSPRLLIYKISNRFSGVPDRFSGSGSGTDFTLKISRVEAEDVGVYYCSQSTHVPYTFGGGTKVEIKR | 0.97 |
| anti-CD47 clone 1-1-A1_BM IgG1 (antibody, V domains shown) VH: QVQLQQSGPDLKKPGASVKVSCKVSGYTFTNYVIHWVRQKPGQGLEWMGYINPYNDGTKSNEKFKGKATLTSDKSSTSAYMELSSLTSEDTAVYYCASGGYYTMDYWGQGTSVTVSS VL: DVVMTQTPLSLPVTLGDQASISCRSSQHLEYSNGYSYLHWYQQRPGQSPQLLIYKISNRFSGVPDRFSGSGSGTDFTLKISRVEAEDLGVYYCSQSTHVPYTFGGGTKLEIKR | 0.97 |

Read the next record carefully.
input: Record request: log10(Kd) value, item 11A1H3-IgG1 (antibody, V domains shown, Humanised version of clone 1-1-A1, IgG1/kappa; also called 1A11H3) VH: QVQLVQSGAEVKKPGASVKVSCKASGYTFTNYVMHWVRQAPGQGLEWMGYINPYNDGTKSNEKFQGRVTLTSDTSTSTAYMELSSLRSEDTAVYYCASGGYYTMDYWGQGTLVASTK VL: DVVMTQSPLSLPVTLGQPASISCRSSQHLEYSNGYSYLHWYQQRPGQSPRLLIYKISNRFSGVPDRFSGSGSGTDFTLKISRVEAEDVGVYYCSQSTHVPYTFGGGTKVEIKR
output: 0.53
